test: in vitro; conditions: human, hela cells, % viability
Test Readout: viability at 28.5 h, 10 µM (%)
Reply with just the number (in %).

The following compounds have reported results that may help.
- Compound: "CS(=O)(=O)N1CC2(CCN(CCc3c[nH]c4ccccc34)CC2)c2ccccc21 [CBK084017T]"
  Unit: "%"
  viability at 28.5 h, 10 µM: 97.9
- Compound: "CN1CCN(c2nccnc2-c2cccnc2)CC1"
  Unit: "%"
  viability at 28.5 h, 10 µM: 89.8
- Compound: "Cn1c(NC(=O)COc2ccccc2)nc2ccccc21"
  Unit: "%"
  viability at 28.5 h, 10 µM: 98.7
- Compound: "CN(C)[C@H]1CCN(C(=O)c2ccc(Nc3cncc(Cl)n3)cn2)C1"
  Unit: "%"
  viability at 28.5 h, 10 µM: 88.8

Continue with the compound presented below.
Query string: I would be grateful if you could share the reported viability at 28.5 h, 10 µM for `COc1ccc(C(C)C)cc1-c1cnc(N)c(NCc2ccncc2)n1` .
Result string: 97.5

###

assay: in vitro; conditions: human, hela cells, % viability
Test Readout: viability at 28.5 h, 10 µM (%)
Reply with just the number (in %).

Query string: I would be grateful if you could share the reported viability at 28.5 h, 10 µM for `O=C1c2ccc(Oc3cccc([N+](=O)[O-])c3)cc2C(=O)N1c1ccccn1` .
Result string: 95.8

###

Property: viability at 28.5 h, 10 µM; scope: individual compounds
assay: in vitro; conditions: human, hela cells, % viability
Reply with just the number (in %).

The following compounds have reported results that may help.
- Compound: "O=C(c1cccnc1)N1CCN(C2CC(=O)N(c3ccc(F)cc3)C2=O)CC1 (stereo not drawn) [CBK270049]"
  Unit: "%"
  Number: 91.5
- Compound: "O=C(CN(c1ccccc1)S(=O)(=O)c1ccc(F)cc1)Nc1ccc(Cl)c(Cl)c1 [CBK268740]"
  Unit: "%"
  Number: 86.6
- Compound: "O=C(COc1cccnc1)N1CCN(c2ncccn2)CC1 [CBK144521]"
  Unit: "%"
  Number: 86.5
- Compound: "O=C(Nc1ccccc1Cl)C1CCCN1S(=O)(=O)c1ccc(F)cc1 (stereo not drawn) [CBK110161]"
  Unit: "%"
  Number: 89.1
- Compound: "O=S(=O)(c1ccccc1)N1CCN(c2cnccn2)CC1 [CBK287839]"
  Unit: "%"
  Number: 88.9

Query string: I would be grateful if you could share the reported viability at 28.5 h, 10 µM for COc1ccc(Cn2c(-c3ccc(OC)c(O)c3)nc3ccccc32)cc1O [CBK263370] .
Result string: 108

Query string: I would be grateful if you could share the reported viability at 28.5 h, 10 µM for O=C(COc1ccc(Cl)cc1)NCCc1ccc(S(=O)(=O)NC(=O)NC2CCCCC2)cc1 [CBK013261] .
Result string: 92.4

Query string: I would be grateful if you could share the reported viability at 28.5 h, 10 µM for CCn1cc(CN(CCCN(C)C)Cc2ccc(C)o2)c(C)n1 [CBK283201] .
Result string: 95.5

Query string: I would be grateful if you could share the reported viability at 28.5 h, 10 µM for O=C(O)/C=C/c1cn([C@@H]2O[C@H](CO)[C@H](O)C2O)c(=O)[nH]c1=O (stereo partly drawn) [CBK201270] .
Result string: 96.7

The reported numbers originate from paper PMC12040169.
